Where do the numbers come from? From patent WO2020228604A1.

# measured_target: T1, human TROP-2 protein with His tag (TROP-2-His) (human, UniProt P09758 27-274)
# T1 construct: Bought reagent (Sino Biological 10428-H08H); also called TROP-2His protein; human TROP-2 His antigen; not shown: His tag
# T1 sequence (looked up): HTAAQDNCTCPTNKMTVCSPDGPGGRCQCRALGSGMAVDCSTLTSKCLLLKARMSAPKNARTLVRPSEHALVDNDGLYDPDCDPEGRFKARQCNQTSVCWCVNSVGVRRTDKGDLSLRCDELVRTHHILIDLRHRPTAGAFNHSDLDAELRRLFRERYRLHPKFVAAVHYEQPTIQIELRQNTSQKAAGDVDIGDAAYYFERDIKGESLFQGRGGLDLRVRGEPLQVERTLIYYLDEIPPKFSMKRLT
# method_notes: competition ELISA; competitor: coated hRS7; test antibody diluted to 100 ug/ml and added with TROP-2-His
endpoint_label: inhibition rate (%)
Answers are plain numbers, in %.

Solved cases below.
binder	readout_unit	inhibition rate
humanized anti-TROP-2 antibody HU10 (antibody, V domains shown) VH: QVQLVQSGAEVKKPGSSVKVSCKASGYTFTNYWMNWVRQAPGKGLEWVGRIDPNDSETHYNQKFKDRFTITRDNSKNTLYLQMNSLRAEDTAVYYCARSGFGSTYWFFDVWGQGTTVTVSS VL: AIRMTQSPFSLSASVGDRVTITCKASQDVSTAVAWYLQKPGQSPQLLIYSASYRYTRIPPRFSGSGYGTDFTLTINNIESEDAAYYFCQQHYSTPLTFGQGTRLEIK	%	10.2
humanized anti-TROP-2 antibody HU1 (antibody, V domains shown) VH: QVQLVQSGAEVKKPGSSVKVSCKASGYTFTNYWMNWVRQAPGKGLEWVGRIDPNDSETHYNQKFKDRFTITRDNSKNTLYLQMNSLRAEDTAVYYCARSGFGSTYWFFDVWGQGTTVTVSS VL: AIRMTQSPFSLSASVGDRVTITCKASQDVSTAVAWYLQKPGQSPQLLIYSASYRYTRIPPRFSGSGYGTDFTLTINNIESEDAAYYFCQQHYSTPLTFGQGTRLEIK	%	13.5
humanized anti-TROP-2 antibody HU6 (antibody, V domains shown) VH: EVQLLESGGGLVQPGGSLRLSCAASGFTVSNYWMNWVRQAPGKGLEWMGRIDPNDSETHYNQKFKDRVTISVDKSKNQFSLKLSSVTAADTAVYYCARSGFGSTYWFFDVWGQGTTVTVSS VL: DVVMTQSPLSLPVTLGQPASISCKASQDVSTAVAWYQQKPGKAPKLFIYSASYRYTGVPSRFSGSGSGTDFTLTISSLQPEDFATYYCQQHYSTPLTFGQGTRLEIK	%	6.7

Shift focus to the following entry.
Sample humanized anti-TROP-2 antibody HU6DL (antibody, V domains shown) VH: EVQLLESGGGLVQPGGSLRLSCAASGFTVSNYWMNWVRQAPGKGLEWMGRIDPNDSETHYNQKFKDRVTISVDKSKNQFSLKLSSVTAADTAVYYCARSGFGSTYWFFDVWGQGTTVTVSS VL: DVVMTQSPLSLPVTLGQPASISCKASQDVSTAVAWYQQKPGKAPKLFIYSASYRYTGVPSRFSGSGSGTDFTLTISSLQPEDFATYYCQQHYSTPLTFGQGTRLEIK ; inhibition rate observed: 5.9
